# TARGET DESC: Heat shock 70 kDa protein 1A (Homo sapiens) (UniProt P0DMV8)
# Sequence (P0DMV8 whole entry, looked up): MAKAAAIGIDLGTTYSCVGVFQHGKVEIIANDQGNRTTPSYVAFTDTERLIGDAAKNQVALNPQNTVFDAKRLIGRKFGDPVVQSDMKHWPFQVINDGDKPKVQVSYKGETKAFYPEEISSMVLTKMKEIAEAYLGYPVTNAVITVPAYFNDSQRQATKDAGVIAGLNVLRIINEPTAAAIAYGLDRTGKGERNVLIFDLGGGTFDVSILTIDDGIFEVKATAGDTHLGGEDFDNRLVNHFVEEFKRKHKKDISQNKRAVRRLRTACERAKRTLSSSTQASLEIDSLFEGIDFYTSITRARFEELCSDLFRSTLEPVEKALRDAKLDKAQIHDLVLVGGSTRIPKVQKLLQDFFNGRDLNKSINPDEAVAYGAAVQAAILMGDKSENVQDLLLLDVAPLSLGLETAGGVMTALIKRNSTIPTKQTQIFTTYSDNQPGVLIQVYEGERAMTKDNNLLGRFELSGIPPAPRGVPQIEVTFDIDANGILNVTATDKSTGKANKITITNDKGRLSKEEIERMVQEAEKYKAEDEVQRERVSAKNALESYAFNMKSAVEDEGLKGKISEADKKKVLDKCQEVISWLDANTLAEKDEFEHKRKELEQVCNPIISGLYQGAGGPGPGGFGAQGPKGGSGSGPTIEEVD
# PROCEDURE TEXT: Hsp70 inhibitors, probe displacement, primary screen, biochemical, fluorescence polarization (AID 583)
# ASSAY CONDITIONS: mP, at 20 µM
Out of some 140,000 compounds screened, about 80 (0.06%) were called active. Cut-off read from the data, not from the text of the source: active = displacement above about 50%; inactive = the rest. This is one part of a sample in which actives are shown more often than they occur.
Give your call using only these classes: active, inactive

[[record]]
molecule = "CC(C)(C)NC(=O)c1cccc(N2C(=O)c3cccc([N+](=O)[O-])c3C2=O)c1"
label_class = "inactive"

[[record]]
molecule = "Cc1ccc(C)n1-c1ccc(C(=O)O)c(O)c1"
label_class = "active"

[[record]]
molecule = "Cc1nc(=O)c(-c2ccccc2)c(C)n1-c1ccc(O)c(C(=O)O)c1"
label_class = "inactive"

[[record]]
molecule = "O=C1C=CC2=C3Oc4c(ccc5cc(O)ccc45)C(c4ccccc4C(=O)O)C3C=CC2=C1 (stereo not drawn)"
label_class = "active"

[[record]]
molecule = "CN(c1ccc(C(=O)NC2CC2)cc1)S(=O)(=O)c1ccccc1"
label_class = "inactive"

[[record]]
molecule = "Cc1ccc(C)n1-c1ccc(C(=O)O)c(Cl)c1"
label_class = "inactive"

[[record]]
molecule = "C/C(=N\\NC(=O)c1cc(-c2cccc([N+](=O)[O-])c2)n[nH]1)c1ccccc1O"
label_class = "inactive"

[[record]]
molecule = "Cc1ccc(/C(N)=N/OC(=O)c2ccccc2F)cc1"
label_class = "inactive"


Enquiry: What classification did CC(NS(C)(=O)=O)C(c1cccs1)N1CCN(Cc2ccccc2)CC1 (stereo not drawn) end up with in this test?
Return: inactive

Enquiry: Short answer needed: outcome of this test for "Cc1ccc(C)n1-c1ccc(Cl)c(C(=O)O)c1" ?
Return: active

Enquiry: Hey, what did the test say about "CCN1C(=O)/C(=C2\SC(=O)N(Cc3ccccc3)C2=O)c2ccccc21" ?
Return: inactive

Enquiry: Please state the recorded outcome for this molecule: "Cc1ccc(-c2ccccc2)n1-c1ccc(O)c(C(=O)O)c1"
Return: inactive

Enquiry: Write down the call the test reported for this molecule. Item: "Cc1nc(=O)c(-c2ccccc2)c(C)n1-c1ccc(C(=O)O)c(O)c1"
Return: inactive
